B1: TRIM39 (parent)
chain: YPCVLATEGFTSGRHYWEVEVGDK

- Variants of: B1
- assay procedure: protein stability index of a GFP-peptide fusion (GPS, HEK-293T) (PSI 1-6); higher = more stable;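 note: lentivirally expressed fusions sorted by FACS into six bins by GFP to DsRed ratio, PSI derived from sequencing read proportions per bin multiplied by bin number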
- study conditions: c terminus: a fixed tail appended
measured parameter: protein stability index

[
  {
    "mut": "L5H",
    "measured parameter": "protein stability index",
    "value reported": 1.36
  },
  {
    "mut": "K24F",
    "measured parameter": "protein stability index",
    "value reported": 2.23
  },
  {
    "mut": "H15L",
    "measured parameter": "protein stability index",
    "value reported": 1.56
  },
  {
    "mut": "E20N",
    "measured parameter": "protein stability index",
    "value reported": 2.06
  },
  {
    "mut": "V19D",
    "measured parameter": "protein stability index",
    "value reported": 3.18
  },
  {
    "mut": "Y16C",
    "measured parameter": "protein stability index",
    "value reported": 1.5
  },
  {
    "mut": "P2F",
    "measured parameter": "protein stability index",
    "value reported": 1.78
  },
  {
    "mut": "V19P",
    "measured parameter": "protein stability index",
    "value reported": 2.13
  },
  {
    "mut": "S12I",
    "measured parameter": "protein stability index",
    "value reported": 2.33
  },
  {
    "mut": "G22K",
    "measured parameter": "protein stability index",
    "value reported": 2.5
  },
  {
    "mut": "V19Q",
    "measured parameter": "protein stability index",
    "value reported": 2.86
  },
  {
    "mut": "W17E",
    "measured parameter": "protein stability index",
    "value reported": 3.84
  },
  {
    "mut": "R14F",
    "measured parameter": "protein stability index",
    "value reported": 1.81
  },
  {
    "mut": "S12W",
    "measured parameter": "protein stability index",
    "value reported": 1.98
  },
  {
    "mut": "P2E",
    "measured parameter": "protein stability index",
    "value reported": 2.67
  },
  {
    "mut": "F10K",
    "measured parameter": "protein stability index",
    "value reported": 1.4
  },
  {
    "mut": "S12R",
    "measured parameter": "protein stability index",
    "value reported": 2.79
  },
  {
    "mut": "E18G",
    "measured parameter": "protein stability index",
    "value reported": 2.82
  },
  {
    "mut": "V4K",
    "measured parameter": "protein stability index",
    "value reported": 1.79
  },
  {
    "mut": "Y16A",
    "measured parameter": "protein stability index",
    "value reported": 2.38
  },
  {
    "mut": "G22S",
    "measured parameter": "protein stability index",
    "value reported": 2.19
  },
  {
    "mut": "G9Y",
    "measured parameter": "protein stability index",
    "value reported": 2.22
  }
]

Cited source for all entries: the supplement of paper PMC10567573
